target: Macaca fascicularis PRLR (mfPRLR.mmh; SEQ ID NO:403); assay: Surface plasmon resonance (Biacore T200), antibody-capture format; format: binding; conditions: 25° C., analyte mfPRLR.mmh
Sequence (as listed by the source): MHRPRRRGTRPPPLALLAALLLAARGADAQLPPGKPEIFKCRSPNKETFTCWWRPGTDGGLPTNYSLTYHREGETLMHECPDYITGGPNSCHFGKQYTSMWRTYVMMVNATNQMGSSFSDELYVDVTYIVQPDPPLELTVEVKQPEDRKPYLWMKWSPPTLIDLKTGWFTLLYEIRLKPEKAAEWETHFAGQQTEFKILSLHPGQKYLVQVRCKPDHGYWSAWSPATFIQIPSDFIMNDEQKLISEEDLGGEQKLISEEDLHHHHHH
Test readout: kd (s⁻¹)
// units = s⁻¹; emit number, no label

## Input Quick check: kd of H1H6958N2: anti-PRLR antibody, receptor blocking, human IgG1 Fc form of H2M6958N2 of Table 1; HCVR/LCVR SEQ ID NOs 290/298 (antibody, V domains shown) VH: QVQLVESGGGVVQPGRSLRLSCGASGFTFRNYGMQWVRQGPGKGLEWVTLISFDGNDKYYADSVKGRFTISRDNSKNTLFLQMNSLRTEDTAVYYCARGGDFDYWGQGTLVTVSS VL: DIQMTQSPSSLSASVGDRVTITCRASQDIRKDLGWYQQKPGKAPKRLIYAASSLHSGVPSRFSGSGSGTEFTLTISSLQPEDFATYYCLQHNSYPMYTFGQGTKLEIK ?
## Output 0.00028
